Measured values drawn from the supplement of paper PMC9112550 for this set.

# System: Escherichia coli TOP10
# experiment: shrunken log2 fold change of peptide-encoding DNA abundance (4.5 h post-induction vs induction); higher = less antimicrobial activity (less host growth inhibition)
# assay.context: time post-induction: 4.5 h; library: site-saturation at positions 5, 18, 19, 20
Kindly return yes (1) if reported shrunken log2 fold change is no lower than 0.2; return no (0) if it is lower.

Is shrunken log2 fold change for RRIRKRPPRLPRPRPRPSLDPRP at or above 0.2? no (0)

Is shrunken log2 fold change for RRIRHRPPRLPRPRPRPHVTPRP at or above 0.2? no (0)

Is shrunken log2 fold change for RRIRHRPPRLPRPRPRPSEYPRP at or above 0.2? no (0)

Is shrunken log2 fold change for RRIRRRPPRLPRPRPRPASNPRP at or above 0.2? yes (1)

Is shrunken log2 fold change for RRIRMRPPRLPRPRPRPINGPRP at or above 0.2? no (0)

---

# System: Escherichia coli TOP10
# experiment: shrunken log2 fold change of peptide-encoding DNA abundance (4.5 h post-induction vs induction); higher = less antimicrobial activity (less host growth inhibition)
# assay.context: time post-induction: 4.5 h; library: site-saturation at positions 5, 18, 19, 20
property.name: shrunken log2 fold change
Answer field: number only, no words.

// map RRIRVRPPRLPRPRPRPIIWPRP to recorded shrunken log2 fold change (system: Escherichia coli TOP10) -0.098

// map RRIRCRPPRLPRPRPRPFGYPRP to recorded shrunken log2 fold change (system: Escherichia coli TOP10) -0.174

// map RRIRLRPPRLPRPRPRPELQPRP to recorded shrunken log2 fold change (system: Escherichia coli TOP10) 0.328

// map RRIRERPPRLPRPRPRPCHMPRP to recorded shrunken log2 fold change (system: Escherichia coli TOP10) 0.0597

// map RRIRKRPPRLPRPRPRPYDHPRP to recorded shrunken log2 fold change (system: Escherichia coli TOP10) -0.084

// map RRIRIRPPRLPRPRPRPEMLPRP to recorded shrunken log2 fold change (system: Escherichia coli TOP10) -0.119

// map RRIRRRPPRLPRPRPRPERKPRP to recorded shrunken log2 fold change (system: Escherichia coli TOP10) 0.0556

---

# System: Escherichia coli TOP10;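 further: peptides expressed intracellularly from a pBAD plasmid library in pooled LB shake-flask culture, induced with 0.3% L-arabinose, DNA abundance read by NGS, three biological replicates, DESeq2 with apeglm shrinkage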
# experiment: shrunken log2 fold change of peptide-encoding DNA abundance (4.5 h post-induction vs induction); higher = less antimicrobial activity (less host growth inhibition)
# assay.context: time post-induction: 4.5 h; library: site-saturation at positions 5, 18, 19, 20
property.name: shrunken log2 fold change
Answer field: number only, no words.

// map RRIRQRPPRLPRPRPRPTSHPRP to recorded shrunken log2 fold change (system: Escherichia coli TOP10) 0.0206

// map RRIRMRPPRLPRPRPRPLQDPRP to recorded shrunken log2 fold change (system: Escherichia coli TOP10) 2.56

// map RRIRTRPPRLPRPRPRPVTPPRP to recorded shrunken log2 fold change (system: Escherichia coli TOP10) 0.184

// map RRIRYRPPRLPRPRPRPPPRPRP to recorded shrunken log2 fold change (system: Escherichia coli TOP10) 1.5

// map RRIRPRPPRLPRPRPRPYWFPRP to recorded shrunken log2 fold change (system: Escherichia coli TOP10) -0.579

// map RRIRTRPPRLPRPRPRPLSSPRP to recorded shrunken log2 fold change (system: Escherichia coli TOP10) -0.0339

// map RRIRGRPPRLPRPRPRPEYTPRP to recorded shrunken log2 fold change (system: Escherichia coli TOP10) 0.335

// map RRIRFRPPRLPRPRPRPPENPRP to recorded shrunken log2 fold change (system: Escherichia coli TOP10) 0.102

// map RRIRPRPPRLPRPRPRPAWAPRP to recorded shrunken log2 fold change (system: Escherichia coli TOP10) 0.45

// map RRIRGRPPRLPRPRPRPCQDPRP to recorded shrunken log2 fold change (system: Escherichia coli TOP10) -0.233

// map RRIRTRPPRLPRPRPRPDRIPRP to recorded shrunken log2 fold change (system: Escherichia coli TOP10) 0.00097

// map RRIRWRPPRLPRPRPRPVQTPRP to recorded shrunken log2 fold change (system: Escherichia coli TOP10) 0.459

// map RRIRLRPPRLPRPRPRPQNGPRP to recorded shrunken log2 fold change (system: Escherichia coli TOP10) -0.146

// map RRIRRRPPRLPRPRPRPGYQPRP to recorded shrunken log2 fold change (system: Escherichia coli TOP10) 0.0538

// map RRIRGRPPRLPRPRPRPVTLPRP to recorded shrunken log2 fold change (system: Escherichia coli TOP10) 0.149

// map RRIRKRPPRLPRPRPRPRFWPRP to recorded shrunken log2 fold change (system: Escherichia coli TOP10) 1.42

// map RRIRERPPRLPRPRPRPWQLPRP to recorded shrunken log2 fold change (system: Escherichia coli TOP10) -0.072

// map RRIRLRPPRLPRPRPRPMVSPRP to recorded shrunken log2 fold change (system: Escherichia coli TOP10) -0.0017

// map RRIRFRPPRLPRPRPRPNQYPRP to recorded shrunken log2 fold change (system: Escherichia coli TOP10) -1.01

// map RRIRGRPPRLPRPRPRPYFSPRP to recorded shrunken log2 fold change (system: Escherichia coli TOP10) -0.00993
